The reported measurements were obtained from patent US20240383984A1.

Measured Fold improvement over hu1G7.v1 accompanies every entry in the list below.
MEASURED_ON: T1, human FcRH5 protein fragment (soluble) (human, UniProt Q96RD9 16-851)
T1 construct: whole entry named; also called soluble human FcRH5; Human FcRH5 (BIACORE analyte)
T1 sequence: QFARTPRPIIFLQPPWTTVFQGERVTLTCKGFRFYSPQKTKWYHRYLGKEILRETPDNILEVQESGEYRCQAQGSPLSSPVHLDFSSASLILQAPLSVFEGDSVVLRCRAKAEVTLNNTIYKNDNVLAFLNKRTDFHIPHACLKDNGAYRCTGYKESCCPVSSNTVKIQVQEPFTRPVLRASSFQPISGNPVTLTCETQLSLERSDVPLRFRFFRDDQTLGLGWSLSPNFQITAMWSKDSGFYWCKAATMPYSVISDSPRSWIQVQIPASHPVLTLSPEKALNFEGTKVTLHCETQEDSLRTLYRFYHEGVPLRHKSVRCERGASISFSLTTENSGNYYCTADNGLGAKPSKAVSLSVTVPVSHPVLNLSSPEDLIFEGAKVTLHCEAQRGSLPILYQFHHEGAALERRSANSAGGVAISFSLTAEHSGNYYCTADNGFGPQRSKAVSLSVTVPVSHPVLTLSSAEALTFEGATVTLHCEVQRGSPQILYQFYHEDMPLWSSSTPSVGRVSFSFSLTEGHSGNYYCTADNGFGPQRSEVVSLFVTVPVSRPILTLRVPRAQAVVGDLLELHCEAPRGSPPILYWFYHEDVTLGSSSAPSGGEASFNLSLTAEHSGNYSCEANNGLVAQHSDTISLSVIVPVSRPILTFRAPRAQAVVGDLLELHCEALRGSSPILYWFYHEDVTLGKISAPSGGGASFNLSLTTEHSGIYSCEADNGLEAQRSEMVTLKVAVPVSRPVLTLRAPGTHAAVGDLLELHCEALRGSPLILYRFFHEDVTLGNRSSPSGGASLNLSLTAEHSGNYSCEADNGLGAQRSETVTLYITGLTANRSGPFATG
EXPERIMENT_NOTES: BIACORE, human IgG1, soluble human FcRH5
OUTCOME_MEASURE: Fold improvement over hu1G7.v1 (fold)

binder="hu1G7.v86 (antibody, human IgG1, V domains shown, human IgG1) VH: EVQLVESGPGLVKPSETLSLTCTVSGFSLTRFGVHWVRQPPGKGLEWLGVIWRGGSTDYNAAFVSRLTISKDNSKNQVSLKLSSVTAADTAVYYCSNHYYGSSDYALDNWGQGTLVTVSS VL: DIQMTQSPSSLSASVGDRVTITCKASQDVSNLVVWFQQKPGKSPKLLIYSGSYRYSGVPSRFSGSGSGTDFTLTISSLQPEDFATYYCQQHYSPPYTFGQGTKVEIK" test_result=10.3
binder="1G7.v1C (antibody, human IgG1, V domains shown, human IgG1 with the light chain of hu1G7.v1; also called C (hu1G7.v1 heavy chain S28P)) VH: EVQLVESGPGLVKPSETLSLTCTVSGFPLTRFGVHWVRQPPGKGLEWLGVIWRGGSTDYNAAFMSRLTISKDNSKNQVSLKLSSVTAADTAVYYCSNHYYGSSDYALDNWGQGTLVTVSS VL: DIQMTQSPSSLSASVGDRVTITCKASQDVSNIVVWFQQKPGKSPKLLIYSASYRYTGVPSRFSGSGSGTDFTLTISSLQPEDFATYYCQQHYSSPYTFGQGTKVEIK" test_result=1.1
binder="1G7.v1J (antibody, human IgG1, V domains shown, human IgG1 with the light chain of hu1G7.v1; also called J (hu1G7.v1 heavy chain K81M)) VH: EVQLVESGPGLVKPSETLSLTCTVSGFSLTRFGVHWVRQPPGKGLEWLGVIWRGGSTDYNAAFMSRLTISKDNSKNQVSLMLSSVTAADTAVYYCSNHYYGSSDYALDNWGQGTLVTVSS VL: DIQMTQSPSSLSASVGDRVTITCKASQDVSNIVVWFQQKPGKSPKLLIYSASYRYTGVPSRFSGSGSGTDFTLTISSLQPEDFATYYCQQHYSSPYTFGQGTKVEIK" test_result=1
binder="1G7.v1K (antibody, human IgG1, V domains shown, human IgG1 with the light chain of hu1G7.v1; also called K (hu1G7.v1 heavy chain S82bD)) VH: EVQLVESGPGLVKPSETLSLTCTVSGFSLTRFGVHWVRQPPGKGLEWLGVIWRGGSTDYNAAFMSRLTISKDNSKNQVSLKLSDVTAADTAVYYCSNHYYGSSDYALDNWGQGTLVTVSS VL: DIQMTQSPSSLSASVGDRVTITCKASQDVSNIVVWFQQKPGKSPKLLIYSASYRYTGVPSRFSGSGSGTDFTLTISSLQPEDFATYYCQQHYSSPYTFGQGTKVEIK" test_result=1
binder="1G7.v1E (antibody, human IgG1, V domains shown, human IgG1 with the light chain of hu1G7.v1; also called E (hu1G7.v1 heavy chain V37Y)) VH: EVQLVESGPGLVKPSETLSLTCTVSGFSLTRFGVHWYRQPPGKGLEWLGVIWRGGSTDYNAAFMSRLTISKDNSKNQVSLKLSSVTAADTAVYYCSNHYYGSSDYALDNWGQGTLVTVSS VL: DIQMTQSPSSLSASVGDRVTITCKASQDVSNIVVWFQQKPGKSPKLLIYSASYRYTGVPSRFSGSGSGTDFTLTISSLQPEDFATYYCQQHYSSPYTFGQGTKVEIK" test_result=1.3
